Test system: T-47D
CONDITION_INFO: Breast
Total growth inhibition (TGI) values by entry

MOLECULE	Total growth inhibition (TGI) (µM)
C=C1CCC2C3(C)COC(c4cn(-c5ccccc5)nc4-c4ccccc4)OC3CCC2(C)C1CC=C1C(=O)OCC1O (stereo not drawn) [1a]	3.47
C=C1CCC2C3(C)COC(c4cn(-c5ccccc5)nc4-c4ccc(OC)cc4)OC3CCC2(C)C1CC=C1C(=O)OCC1O (stereo not drawn) [1j]	5.02
C=C1CCC2C3(C)COC(c4cn(-c5ccccc5)nc4-c4cccc(F)c4)OC3CCC2(C)C1CC=C1C(=O)OCC1O (stereo not drawn) [1c]	4.07

* * *

System: SK-MEL-5
CONDITION_INFO: SK-MEL-5, Melanoma

COMPOUND	UNITS_TEXT	Total growth inhibition (TGI)
C=C1CCC2C3(C)COC(c4cn(-c5ccccc5)nc4-c4ccc(C)cc4)OC3CCC2(C)C1CC=C1C(=O)OCC1O (stereo not drawn)	µM	2.96
C=C1CCC2C3(C)COC(c4cn(-c5ccccc5)nc4-c4cccc(Cl)c4)OC3CCC2(C)C1CC=C1C(=O)OCC1O (stereo not drawn)	µM	3
C=C1CCC2C3(C)COC(c4cn(-c5ccccc5)nc4-c4cccc([N+](=O)[O-])c4)OC3CCC2(C)C1CC=C1C(=O)OCC1O (stereo not drawn)	µM	3
C=C1CCC2C3(C)COC(c4cn(-c5ccccc5)nc4-c4cccc(F)c4)OC3CCC2(C)C1CC=C1C(=O)OCC1O (stereo not drawn)	µM	3.02
C=C1CCC2C3(C)COC(c4cn(-c5ccccc5)nc4-c4ccc(Br)cc4)OC3CCC2(C)C1CC=C1C(=O)OCC1O (stereo not drawn)	µM	2.96
C=C1CCC2C3(C)COC(c4cn(-c5ccccc5)nc4-c4ccc(F)cc4)OC3CCC2(C)C1CC=C1C(=O)OCC1O (stereo not drawn)	µM	2.98

* * *

Test system: NCI-H23
CONDITION_INFO: read-out: 50% lethal concentration (LC50); NCI-H23, Non-Small Cell Lung

COMPOUND	UNITS_TEXT	CC50
C=C1CCC2C3(C)COC(c4cn(-c5ccccc5)nc4-c4ccc(OC)cc4)OC3CCC2(C)C1CC=C1C(=O)OCC1O (centres unmarked) [1j]	µM	8.2
C=C1CCC2C3(C)COC(c4cn(-c5ccccc5)nc4-c4ccc(F)cc4)OC3CCC2(C)C1CC=C1C(=O)OCC1O (centres unmarked) [1f]	µM	6.46
C=C1CCC2C3(C)COC(c4cn(-c5ccccc5)nc4-c4cccc(F)c4)OC3CCC2(C)C1CC=C1C(=O)OCC1O (centres unmarked) [1c]	µM	7.09
C=C1CCC2C3(C)COC(c4cn(-c5ccccc5)nc4-c4cccc(Br)c4)OC3CCC2(C)C1CC=C1C(=O)OCC1O (centres unmarked) [1e]	µM	8.74
C=C1CCC2C3(C)COC(c4cn(-c5ccccc5)nc4-c4ccc(Br)cc4)OC3CCC2(C)C1CC=C1C(=O)OCC1O (centres unmarked) [1h]	µM	7.67

* * *

Tested on: A498
CONDITION_INFO: A498, Renal
METRIC_NAME: Total growth inhibition (TGI) (µM)

COMPOUND	METRIC_NAME	UNITS_TEXT	MEASURED_VALUE
C=C1CCC2C3(C)COC(c4cn(-c5ccccc5)nc4-c4cccc(Cl)c4)OC3CCC2(C)C1CC=C1C(=O)OCC1O (centres unmarked)	Total growth inhibition (TGI)	µM	11.4
C=C1CCC2C3(C)COC(c4cn(-c5ccccc5)nc4-c4ccc(Cl)cc4)OC3CCC2(C)C1CC=C1C(=O)OCC1O (centres unmarked)	Total growth inhibition (TGI)	µM	19
C=C1CCC2C3(C)COC(c4cn(-c5ccccc5)nc4-c4cccc(F)c4)OC3CCC2(C)C1CC=C1C(=O)OCC1O (centres unmarked)	Total growth inhibition (TGI)	µM	18.4
C=C1CCC2C3(C)COC(c4cn(-c5ccccc5)nc4-c4ccccc4)OC3CCC2(C)C1CC=C1C(=O)OCC1O (centres unmarked)	Total growth inhibition (TGI)	µM	6.47
C=C1CCC2C3(C)COC(c4cn(-c5ccccc5)nc4-c4ccc(OC)cc4)OC3CCC2(C)C1CC=C1C(=O)OCC1O (centres unmarked)	Total growth inhibition (TGI)	µM	11.3
